# Test system: MDR1
# protocol.summary: in vitro
# test.settings: dog, MDCK-MDR1
# Description: Efflux ratio of apparent permeability across basal to apical side over apical to basal side in dog MDCK-MDR1 cells at 1 uM measured after 1 day by LC-MS/MS analysis
experimental.endpoint: efflux ratio at 24 h, 1 µM

(a) N#Cc1cnc(Nc2cn(C(F)F)cn2)cn1
(b) CN1CC2(CCN(c3nc(Nc4cn(C(F)F)cn4)cnc3C#N)C2)C1
(c) CN1CC[C@@H]2CN(c3ccc(-n4cnc(Nc5cnc(C#N)cn5)c4)cc3)C[C@@H]21
Please rank the 3 items above; order by efflux ratio at 24 h, 1 µM, the highest number leading. Labels, requested order. b, c, a

* * *

# tgt: Serine/threonine-protein kinase Chk1 (Homo sapiens)
# protocol.summary: Inhibition of CHK1 in neocarzinostatin-stimulated human SW620 cells assessed as inhibition of CHK1 phosphorylation at Ser296 residue incubated for 2 hrs by sandwich ELISA
# Format: cell-based
experimental.endpoint: pIC50
API: returns pIC50 as number; meaning -log10 of concentration in mol/L.

Output measured pIC50 for this item: CN(C)[C@@H]1CCN(c2ccc(-n3cnc(Nc4cnc(C#N)cn4)c3)cc2)C1 6.35

* * *

# tgt: Sodium channel protein type 5 subunit alpha (Homo sapiens, UniProt Q14524)
# Sequence (Q14524 whole entry): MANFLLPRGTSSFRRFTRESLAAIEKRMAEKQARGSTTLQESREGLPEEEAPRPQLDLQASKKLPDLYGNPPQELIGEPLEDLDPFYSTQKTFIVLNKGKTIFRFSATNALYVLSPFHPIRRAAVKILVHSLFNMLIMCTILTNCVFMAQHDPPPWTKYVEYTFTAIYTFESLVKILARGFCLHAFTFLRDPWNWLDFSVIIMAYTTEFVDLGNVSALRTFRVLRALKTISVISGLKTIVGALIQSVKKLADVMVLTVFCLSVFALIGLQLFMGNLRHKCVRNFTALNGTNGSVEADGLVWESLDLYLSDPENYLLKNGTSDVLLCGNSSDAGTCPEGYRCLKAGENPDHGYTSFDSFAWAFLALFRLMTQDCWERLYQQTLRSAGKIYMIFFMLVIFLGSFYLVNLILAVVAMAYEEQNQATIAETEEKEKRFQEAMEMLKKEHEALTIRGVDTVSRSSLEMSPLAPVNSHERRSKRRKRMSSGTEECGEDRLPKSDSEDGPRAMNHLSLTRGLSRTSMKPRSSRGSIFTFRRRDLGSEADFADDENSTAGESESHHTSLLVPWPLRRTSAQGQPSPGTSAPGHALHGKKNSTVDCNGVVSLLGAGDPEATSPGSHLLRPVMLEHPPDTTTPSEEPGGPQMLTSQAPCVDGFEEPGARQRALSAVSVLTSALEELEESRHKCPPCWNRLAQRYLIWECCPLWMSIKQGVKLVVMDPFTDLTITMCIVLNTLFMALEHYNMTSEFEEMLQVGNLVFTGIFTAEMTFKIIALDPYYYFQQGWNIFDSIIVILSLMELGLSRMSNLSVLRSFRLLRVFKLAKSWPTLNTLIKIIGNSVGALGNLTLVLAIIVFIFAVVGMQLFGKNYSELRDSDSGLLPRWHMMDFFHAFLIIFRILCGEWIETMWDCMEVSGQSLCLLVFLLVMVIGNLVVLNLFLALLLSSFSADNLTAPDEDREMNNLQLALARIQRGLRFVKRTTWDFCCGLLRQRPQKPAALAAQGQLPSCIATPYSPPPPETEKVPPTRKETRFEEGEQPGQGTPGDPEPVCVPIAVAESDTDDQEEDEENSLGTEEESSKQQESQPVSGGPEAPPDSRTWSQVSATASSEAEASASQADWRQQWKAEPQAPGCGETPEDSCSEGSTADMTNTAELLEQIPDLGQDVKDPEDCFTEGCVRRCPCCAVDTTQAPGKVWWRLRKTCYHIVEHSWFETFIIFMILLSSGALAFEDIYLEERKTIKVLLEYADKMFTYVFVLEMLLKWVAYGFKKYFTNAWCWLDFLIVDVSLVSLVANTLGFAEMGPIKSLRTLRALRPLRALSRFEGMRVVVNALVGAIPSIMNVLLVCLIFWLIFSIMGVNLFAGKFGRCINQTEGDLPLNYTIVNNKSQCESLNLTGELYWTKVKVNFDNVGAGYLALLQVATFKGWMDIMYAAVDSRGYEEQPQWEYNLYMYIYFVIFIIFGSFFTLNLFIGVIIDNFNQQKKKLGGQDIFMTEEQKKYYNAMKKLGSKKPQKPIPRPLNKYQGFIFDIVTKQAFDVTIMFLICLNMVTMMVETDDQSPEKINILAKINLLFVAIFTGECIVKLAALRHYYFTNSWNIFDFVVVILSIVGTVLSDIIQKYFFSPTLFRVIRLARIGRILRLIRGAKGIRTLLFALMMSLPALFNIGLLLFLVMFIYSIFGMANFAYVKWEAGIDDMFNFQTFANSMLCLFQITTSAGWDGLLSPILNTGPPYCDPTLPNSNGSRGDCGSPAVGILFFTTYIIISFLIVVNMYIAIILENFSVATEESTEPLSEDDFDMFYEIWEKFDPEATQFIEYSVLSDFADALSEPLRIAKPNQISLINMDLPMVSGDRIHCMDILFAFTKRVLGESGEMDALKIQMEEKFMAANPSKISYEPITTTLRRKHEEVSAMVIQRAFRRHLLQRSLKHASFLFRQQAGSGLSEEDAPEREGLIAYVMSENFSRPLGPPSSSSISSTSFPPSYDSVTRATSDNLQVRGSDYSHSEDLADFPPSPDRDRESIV
# protocol.summary: Inhibition of human Nav1.5 transfected in CHO cells by automated electrophysiological analysis
experimental.endpoint: IC50

Output measured IC50 for this item: CN(C)[C@@H]1CCN(c2ccc(-n3cnc(Nc4cnc(C#N)cn4)c3)cc2)C1 > 30 µM

* * *

# tgt: Serine/threonine-protein kinase Chk1 (Homo sapiens)
# Sequence (O14757 whole entry): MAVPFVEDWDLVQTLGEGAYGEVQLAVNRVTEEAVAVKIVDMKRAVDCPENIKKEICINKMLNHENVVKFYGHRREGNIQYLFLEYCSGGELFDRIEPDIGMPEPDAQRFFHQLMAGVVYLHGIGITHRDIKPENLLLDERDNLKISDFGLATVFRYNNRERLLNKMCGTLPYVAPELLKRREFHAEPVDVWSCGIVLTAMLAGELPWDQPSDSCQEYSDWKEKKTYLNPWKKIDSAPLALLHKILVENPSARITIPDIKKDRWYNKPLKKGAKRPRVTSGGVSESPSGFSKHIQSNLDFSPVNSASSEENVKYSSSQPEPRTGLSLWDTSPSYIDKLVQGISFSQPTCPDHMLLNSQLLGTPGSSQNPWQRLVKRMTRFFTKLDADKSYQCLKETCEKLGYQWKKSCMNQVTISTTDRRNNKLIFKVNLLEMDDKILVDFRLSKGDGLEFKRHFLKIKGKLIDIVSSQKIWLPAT
# protocol.summary: Inhibition of N-terminal GST-fused human full length CHK1 (1 to 476 residues) expressed in baculovirus-infected Sf21 cells using STK1 S1 as substrate preincubated for 30 mins in presence of ATP followed by MgCl2 addition and measured after 60 mins by TR-FRET assay
experimental.endpoint: IC50 (nM)

{"item.smiles": "CCN(C)[C@@H]1CCN(c2ccc(-n3cnc(Nc4cnc(C#N)cn4)c3)cc2)C1", "experimental.endpoint": "IC50", "measured.result": 4}
{"item.smiles": "CN(C)[C@H]1CN(c2ccc(-n3cnc(Nc4cnc(C#N)cn4)c3)cc2)C[C@H]1F", "experimental.endpoint": "IC50", "measured.result": 14}
{"item.smiles": "CN1CC2(CCN(c3nc(Nc4cn(C(F)F)cn4)cnc3C#N)C2)C1", "experimental.endpoint": "IC50", "measured.result": 14}

(a) N#Cc1cnc(Nc2cn(-c3ccc(N4CCN(CCF)CC4)cc3)cn2)cn1
(b) Cc1cc(N2CCN(C)CC2)ccc1-n1cnc(Nc2cnc(C#N)cn2)c1
Sort a and b by IC50 descending and give the first. // respond with label for picked entry b
(b: 464 nM, a: 40 nM)

(P) CN(C)[C@]1(C)CCN(c2ccc(-n3cnc(Nc4cnc(C#N)cn4)c3)cc2)C1
(Q) CN1CC2(C1)CN(c1ccc(-n3cnc(Nc4cnc(C#N)cn4)c3)cc1)C2
Sort P and Q by IC50 descending and give the first. // respond with label for picked entry Q
(Q: 31 nM, P: 2 nM)

* * *

# protocol.summary: in vitro
# test.settings: dog, MDCK
# Description: Apparent permeability of the compound across apical to basolateral side in dog MDCK cells at 1 uM measured after 1 day by LC-MS/MS analysis
experimental.endpoint: Papp A→B at 24 h, 1 µM (×10⁻⁶ cm/s)
Give just the number in ×10⁻⁶ cm/s; leave the unit off.

Output measured Papp A→B at 24 h, 1 µM for this item: CN1CCN(c2ccc(-n3cnc(Nc4cnc(C#N)cn4)c3)cc2)CC1 58

* * *

# tgt: Serine/threonine-protein kinase Chk1 (Homo sapiens)
# protocol.summary: Inhibition of N-terminal GST-fused human full length CHK1 (1 to 476 residues) expressed in baculovirus-infected Sf21 cells using STK1 S1 as substrate preincubated for 30 mins in presence of ATP followed by MgCl2 addition and measured after 60 mins by TR-FRET assay
experimental.endpoint: IC50 (nM)

{"item.smiles": "CN(C)[C@@H]1CCN(c2ccc(-n3cnc(Nc4cnc(C#N)cn4)c3)cc2)C1", "IC50 / nM": 4}

(I) CN(C)[C@H]1CN(c2ccc(-n3cnc(Nc4cnc(C#N)cn4)c3)cc2)C[C@@H]1F
(II) CN(C)[C@H]1CCN(c2ccc(-n3cnc(Nc4cnc(C#N)cn4)c3)cc2)C1
(III) CN1CC[C@@H]2CN(c3ccc(-n4cnc(Nc5cnc(C#N)cn5)c4)cc3)C[C@@H]21
(IV) CN(C)C1CN(c2ccc(-n3cnc(Nc4cnc(C#N)cn4)c3)cc2)C1
# desc sort on IC50 across 4 molecules Labels, requested order. II, III, IV, I

* * *

# protocol.summary: Intrinsic clearance in human liver microsomes measured per mg protein
# Type: ADME, Microsome
# test.settings: read-out: CLH
experimental.endpoint: microsomal CLint

Output measured microsomal CLint for this item: CN1CCN(c2ccc(-n3cnc(Nc4cnc(C#N)cn4)c3)cc2)CC1 < 14 µL/min/mg

* * *

# Test system: MDR1
# protocol.summary: in vitro
# test.settings: dog, MDCK-MDR1
experimental.endpoint: efflux ratio at 24 h, 1 µM

{"item.smiles": "CN(C)[C@]1(C)CCN(c2ccc(-n3cnc(Nc4cnc(C#N)cn4)c3)cc2)C1", "efflux ratio at 24 h, 1 µM": 3.6}
{"item.smiles": "CN1CCN(c2ccc(-n3cnc(Nc4cnc(C#N)cn4)c3)cc2)CC1", "efflux ratio at 24 h, 1 µM": 1.7}

(a) CN(C)C1CCN(c2ccc(-n3cnc(Nc4cnc(C#N)cn4)c3)cc2)CC1
(b) N#Cc1cnc(Nc2cn(-c3ccccc3)cn2)cn1
Which record shows the lower efflux ratio at 24 h, 1 µM: the first, a , or the second, b ? // respond with label for picked entry b

* * *

# Test system: BCRP
# protocol.summary: in vitro
# test.settings: dog
# Description: Efflux ratio of apparent permeability across basal to apical side over apical to basal side in dog MDCK-BCRP cells at 1 uM measured after 1 day by LC-MS/MS analysis
experimental.endpoint: efflux ratio at 24 h, 1 µM

Below: 4 molecules and their reported efflux ratio at 24 h, 1 µM.
{"item.smiles": "CN(C)C1CCN(c2ccc(-n3cnc(Nc4cnc(C#N)cn4)c3)cc2)CC1", "tgt": "BCRP", "efflux ratio at 24 h, 1 µM": 23}
{"item.smiles": "CN1CCN(c2ccc(-n3cnc(Nc4cnc(C#N)cn4)c3)cc2)CC1", "tgt": "BCRP", "efflux ratio at 24 h, 1 µM": 3.7}
{"item.smiles": "CN1CC[C@@H]2CN(c3ccc(-n4cnc(Nc5cnc(C#N)cn5)c4)cc3)C[C@@H]21", "tgt": "BCRP", "efflux ratio at 24 h, 1 µM": 2.7}
{"item.smiles": "N#Cc1cnc(Nc2cn(-c3ccc(N4CCN(CCF)CC4)cc3)cn2)cn1", "tgt": "BCRP", "efflux ratio at 24 h, 1 µM": 1.4}

(1) N#Cc1cnc(Nc2cn(-c3ccccc3)cn2)cn1
(2) CN(C)[C@]1(C)CCN(c2ccc(-n3cnc(Nc4cnc(C#N)cn4)c3)cc2)C1
Sort 1 and 2 by efflux ratio at 24 h, 1 µM descending and give the first. // respond with label for picked entry 2

* * *

pIC50: −log10 of the molar value.
Measurement record for Serine/threonine-protein kinase Chk2 (Homo sapiens, UniProt O96017); quantity recorded: pIC50.
experimental.endpoint: pIC50

{"item.smiles": "CN(C)[C@H]1CN(c2ccc(-n3cnc(Nc4cnc(C#N)cn4)c3)cc2)C[C@@H]1F", "pIC50": 5.88}

(I) CN(C)[C@]1(C)CCN(c2ccc(-n3cnc(Nc4cnc(C#N)cn4)c3)cc2)C1
(II) C[C@H]1CN(c2ccc(-n3cnc(Nc4cnc(C#N)cn4)c3)cc2)C[C@@H]1N(C)C
(III) CN(C)C1CCN(c2ccc(-n3cnc(Nc4cnc(C#N)cn4)c3)cc2)CC1
# desc sort on pIC50 across 3 compounds Labels, requested order. I, II, III

* * *

# tgt: Serine/threonine-protein kinase Chk1 (Homo sapiens)
# protocol.summary: Inhibition of human full length recombinant CHK1 using KKKVSRSGLYRSPSMPENLNRPR as substrate in presence of [gamma-33P]ATP incubated for 40 mins by radiometric assay
pIC50: −log10 of the molar value.
experimental.endpoint: pIC50

(I) N#Cc1cnc(Nc2cn(C(F)F)cn2)cn1
(II) N#Cc1cnc(Nc2cn(-c3ccccc3)cn2)cn1
Which record shows the lower pIC50: the first, I , or the second, II ? // respond with label for picked entry I
